biological target: CAv1.2 (Homo sapiens, UniProt Q13936); experiment: FLIPR data, CAv1.2 channel blocking (Table 6); format: cell-based; details: inactivated state, read-out: CAv1.2 IC50 Inact.
Metric: IC50

// solved cases for IC50 follow
| Chemical string | Value reported |
| --- | --- |
| CC(C)(C[C@H]1C[C@H](NC(=O)CC2(N)CCCCC2)C1)S(=O)(=O)c1cccc(C(F)(F)F)c1 | ≥ 10 µM |
| CC(C)(C[C@H]1C[C@@H](NC(=O)c2ncc(C(F)(F)F)cc2S(C)(=O)=O)C1)S(=O)(=O)c1cccc(C(F)(F)F)c1 | ≥ 10 µM |

Switching to the query record.
Return IC50 measured with CAv1.2 (Homo sapiens, UniProt Q13936) given this molecule: `CC(C)(C[C@H]1C[C@H](NC(=O)[C@@H]2CCCC[C@@H]2N)C1)S(=O)(=O)c1cccc(C(F)(F)F)c1`
≥ 10 µM

---

IC50 values, listed per item
biological target: N-type calcium channel subunits (α1B, α2δ, and β3a) (Homo sapiens); experiment: Block of Cav2.2 channel, whole cell voltage clamp, manual and PatchXpress; format: cell-based; details: Table 5; table follows Assay Example 3 (whole cell voltage clamp / PatchXpress); assay not given
State just the number; it will be interpreted in nM.

For orientation, consider the following solved cases.
| Compound | Target of assay | Unit info | IC50 |
| --- | --- | --- | --- |
| COc1cc(F)cc(C(=O)NC[C@]2(O)CC[C@@H](S(=O)(=O)c3cccc(C(F)(F)F)c3)CC2)c1 [Compound 229] | N-type calcium channel subunits (α1B, α2δ, and β3a) (Homo sapiens) | nM | 1020 |
| O=C(N[C@H]1C[C@H](CS(=O)(=O)c2cccc(C(F)(F)F)c2)C1)c1cc(F)cc(Cl)c1 [Compound 344] | N-type calcium channel subunits (α1B, α2δ, and β3a) (Homo sapiens) | nM | 680 |
| O=S(=O)(N[C@H]1CC[C@@](F)(S(=O)(=O)c2cccc(C(F)(F)F)c2)CC1)c1ccccc1C(F)(F)F [Compound 299] | N-type calcium channel subunits (α1B, α2δ, and β3a) (Homo sapiens) | nM | 730 |

// query IC50 value for entry O=C(NC[C@H]1C[C@H](S(=O)(=O)c2cc(F)cc(C(F)(F)F)c2)C1)c1ccc(F)c(C(F)(F)F)c1 [Compound 389]
270

---

Below, each of the compounds is paired with its reported pIC50 value.
target: T-type calcium channel (Homo sapiens); test: T-type channel blocking, FLIPR data (Table 6); type: cell-based; details: CAv3.2, inactivated state, read-out: CAv3.2 IC50 Inact.
Sequence (O95180 whole entry): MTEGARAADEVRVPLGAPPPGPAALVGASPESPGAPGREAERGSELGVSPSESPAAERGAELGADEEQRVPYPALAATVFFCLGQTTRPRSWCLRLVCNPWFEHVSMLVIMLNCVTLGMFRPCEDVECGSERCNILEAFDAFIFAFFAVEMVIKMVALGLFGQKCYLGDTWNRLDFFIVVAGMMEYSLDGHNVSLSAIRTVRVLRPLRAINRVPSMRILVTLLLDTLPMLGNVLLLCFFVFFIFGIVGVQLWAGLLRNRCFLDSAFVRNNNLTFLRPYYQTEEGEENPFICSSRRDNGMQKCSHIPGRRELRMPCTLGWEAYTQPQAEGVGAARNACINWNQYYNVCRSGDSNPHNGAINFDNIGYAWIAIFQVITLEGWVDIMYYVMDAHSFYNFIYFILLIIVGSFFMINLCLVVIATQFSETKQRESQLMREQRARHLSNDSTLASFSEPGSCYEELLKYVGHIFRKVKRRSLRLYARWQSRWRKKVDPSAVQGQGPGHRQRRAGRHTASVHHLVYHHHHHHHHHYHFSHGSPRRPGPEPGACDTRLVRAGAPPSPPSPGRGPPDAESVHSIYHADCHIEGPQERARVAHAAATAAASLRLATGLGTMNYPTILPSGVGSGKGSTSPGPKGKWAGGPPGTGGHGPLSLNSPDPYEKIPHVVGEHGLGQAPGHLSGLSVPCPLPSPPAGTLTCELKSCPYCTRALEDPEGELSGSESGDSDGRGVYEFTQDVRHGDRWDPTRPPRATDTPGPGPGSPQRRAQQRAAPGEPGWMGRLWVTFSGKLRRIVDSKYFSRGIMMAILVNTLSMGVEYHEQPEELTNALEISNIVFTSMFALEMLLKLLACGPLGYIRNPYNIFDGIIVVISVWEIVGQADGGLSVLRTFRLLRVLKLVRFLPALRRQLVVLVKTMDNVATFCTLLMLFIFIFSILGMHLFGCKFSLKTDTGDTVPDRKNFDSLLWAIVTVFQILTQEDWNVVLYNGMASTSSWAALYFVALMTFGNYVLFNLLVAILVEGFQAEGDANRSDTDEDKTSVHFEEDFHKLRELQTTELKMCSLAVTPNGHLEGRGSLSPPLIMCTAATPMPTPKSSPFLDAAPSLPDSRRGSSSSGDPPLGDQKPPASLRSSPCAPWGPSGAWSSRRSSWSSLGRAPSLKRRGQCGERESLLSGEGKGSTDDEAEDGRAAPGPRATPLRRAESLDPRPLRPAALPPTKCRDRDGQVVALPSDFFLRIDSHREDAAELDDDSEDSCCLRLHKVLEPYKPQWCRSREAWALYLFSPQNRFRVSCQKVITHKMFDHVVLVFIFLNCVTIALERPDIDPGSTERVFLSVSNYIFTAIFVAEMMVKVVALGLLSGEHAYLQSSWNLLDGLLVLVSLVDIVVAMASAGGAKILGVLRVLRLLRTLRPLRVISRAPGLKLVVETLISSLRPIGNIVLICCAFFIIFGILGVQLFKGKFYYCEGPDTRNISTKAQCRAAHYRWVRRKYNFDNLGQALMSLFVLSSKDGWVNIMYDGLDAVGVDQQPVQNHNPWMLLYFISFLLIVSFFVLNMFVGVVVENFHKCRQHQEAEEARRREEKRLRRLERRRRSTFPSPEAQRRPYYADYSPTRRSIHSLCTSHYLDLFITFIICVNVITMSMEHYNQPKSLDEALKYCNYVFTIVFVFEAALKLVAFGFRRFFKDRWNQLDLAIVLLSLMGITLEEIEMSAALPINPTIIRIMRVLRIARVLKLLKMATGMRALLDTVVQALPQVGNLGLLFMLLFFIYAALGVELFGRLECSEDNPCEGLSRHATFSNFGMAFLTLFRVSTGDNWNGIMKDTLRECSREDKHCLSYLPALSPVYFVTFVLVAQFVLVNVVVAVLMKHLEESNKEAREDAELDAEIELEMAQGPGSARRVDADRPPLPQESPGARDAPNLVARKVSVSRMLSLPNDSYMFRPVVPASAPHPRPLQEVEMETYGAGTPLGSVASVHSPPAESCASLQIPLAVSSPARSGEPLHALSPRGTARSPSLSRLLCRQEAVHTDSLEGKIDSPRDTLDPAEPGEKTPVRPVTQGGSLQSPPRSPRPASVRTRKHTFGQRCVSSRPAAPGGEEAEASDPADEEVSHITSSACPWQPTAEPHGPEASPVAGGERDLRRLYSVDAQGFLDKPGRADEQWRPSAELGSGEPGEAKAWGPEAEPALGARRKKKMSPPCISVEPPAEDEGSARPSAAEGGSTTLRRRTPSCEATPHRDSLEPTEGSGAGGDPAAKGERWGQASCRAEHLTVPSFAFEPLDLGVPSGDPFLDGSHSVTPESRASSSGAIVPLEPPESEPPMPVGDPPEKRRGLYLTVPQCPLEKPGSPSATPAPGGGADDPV
# pIC50 = -log10(concentration in molar units)

Worked set:
| Compound | Metric | Value reported |
| --- | --- | --- |
| CC(C)(C[C@H]1C[C@H](NC(=O)c2ccc(OCC(F)(F)F)nc2)C1)S(=O)(=O)c1cccc(C(F)(F)F)c1 | pIC50 | 6.08 |
| CC(C)([C@H]1C[C@@H](NS(=O)(=O)c2ccc(OC(F)(F)F)cc2)C1)S(=O)(=O)c1cc(F)cc(C(F)(F)F)c1 | pIC50 | 5.19 |
| CC(C)([C@H]1C[C@@H](NC(=O)c2cc(C(F)(F)F)n[nH]2)C1)S(=O)(=O)c1cc(F)cc(C(F)(F)F)c1 | pIC50 | 5.44 |

Moving on to another compound below.
Any idea what pIC50 was measured for CC(C)(C1CC(CNC(=O)c2ccnc(C(F)(F)F)n2)C1)S(=O)(=O)c1cccc(C(F)(F)F)c1 (stereo not shown) ?
5.14

The values you see were collected from patent US20120245137A1.
